# System: BV2 microglia cells
# experiment: LPS-induced nitric oxide production in BV2 microglia cells
# Assay type: cell-based
# experimental-parameters: 50% suppression of nitric oxide release from BV2 cells following LPS stimulation
pEC50: −log10 of the molar value. Positions of bridges follow the written chain, without caps; N, C: chain ends. Chains are numbered I, II in the order given. No end group written: not given here.
Each record here notes measured pEC50.

{"columns": ["substance", "pEC50"],
 "data": [
  ["Ac-RQIKIWFQNRRMKWKKCLRVRLASHLRKLRKRLL-NH2 [COG112]", "> 6.00"],
  ["LLRKRLKRLHSALRVRL [COG056, LLRKRLKRLHSALRVRL (SEQ ID NO: 2), reference compound]", "< 4.70"],
  ["I: Ac-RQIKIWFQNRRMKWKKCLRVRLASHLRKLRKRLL-NH2 / II: Ac-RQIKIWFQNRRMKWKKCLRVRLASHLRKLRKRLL-NH2 (disulfide I:17-II:17) [COG445, COG112-C-C-COG112]", "> 6.00"]
]}

====

# experiment: Mouse toxicity, maximum tolerated dose by intravenous injection
# experimental-parameters: in vivo, maximum dose by intravenous injection without deaths after 24 hrs
Non-standard residues stand in square brackets, D forms with d. Residues, ends and D or L forms follow the SMILES beside them. Aib = CC(C)(N)C(=O)O

{"columns": ["molecule", "MTD at 24 h, mg/kg"],
 "data": [
  ["CC(=O)N[C@@H](C)C(=O)N[C@@H](CO)C(=O)NC(C)(C)C(=O)N[C@@H](CC(C)C)C(=O)N[C@@H](CCCNC(=N)N)C(=O)N[C@@H](CCCCN)C(=O)N[C@@H](CC(C)C)C(=O)NC(C)(C)C(=O)N[C@@H](CCCCN)C(=O)N[C@@H](CCCNC(=N)N)C(=O)N[C@@H](CC(C)C)C(=O)N[C@@H](CC(C)C)C(N)=O [COG1410, AS(Aib)LRKL(Aib)KRLL (SEQ ID NO: 5)] (Ac-AS[Aib]LRKL[Aib]KRLL-NH2; N-terminus and C-terminus assumed)", 15]
]}

====

# experiment: Mouse toxicity, maximum tolerated dose by intravenous injection
# experimental-parameters: in vivo, maximum dose by intravenous injection without deaths after 24 hrs
Starred links: 1 amine or outer side, 2 acyl side, 3 side chain; linkers in the order of their positions; H or OH if unused. Positions of bridges follow the written chain, without caps; N, C: chain ends. Chains are numbered I, II in the order given. BMOE = O=C1CC([*:1])C(=O)N1CCN1C(=O)CC([*:2])C1=O
This section presents substances with their documented MTD at 24 h values.

{"columns": ["substance", "MTD at 24 h / mg/kg"],
 "data": [
  ["Ac-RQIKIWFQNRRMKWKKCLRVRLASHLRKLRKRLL-NH2 [COG112]", 28],
  ["I: Ac-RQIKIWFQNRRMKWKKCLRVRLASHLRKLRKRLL-NH2 / II: Ac-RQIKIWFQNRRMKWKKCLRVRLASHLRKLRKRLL-NH2 (disulfide I:17-II:17) [COG445, COG112-C-C-COG112]", 28],
  ["I: Ac-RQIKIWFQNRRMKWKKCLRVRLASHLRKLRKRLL-NH2 / II: Ac-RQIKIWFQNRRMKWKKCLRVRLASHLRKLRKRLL-NH2 (linker I:17-II:17 via BMOE) [COG449, COG112-C-BMOE-C-COG112]", 12]
]}
